Assay: folding enthalpy; higher = less favourable; fluorescence melt of hairpins on a sequencing array, two-state fit
Conditions: sodium 0.088 M
Tag: 1 if measured folding enthalpy is not below -20 kcal/mol, -1 if it is.

Some entries whose results are on file:
Residue string	Class
GTTATTGGAAACAATAGC (.(((((....))))).)	1
GATCTTCTGCAAGATC ((((((....))))))	-1
GCATCGGGAAACCAACGC ((.(.((....)).).))	1

I'd appreciate it if you could say whether GATGATACGAAAGTAATC (((..(((....)))))) has folding enthalpy at least equal to -20 kcal/mol.
1

I'd appreciate it if you could say whether GCGGACGTCCGC ((((....)))) has folding enthalpy at least equal to -20 kcal/mol.
-1

I'd appreciate it if you could say whether GGGGTCGAAAGACTTCCC ((((((....)))..))) has folding enthalpy at least equal to -20 kcal/mol.
1

I'd appreciate it if you could say whether GTTGAGGGAAACCTCGAC ((.((((....)))).)) has folding enthalpy at least equal to -20 kcal/mol.
-1

I'd appreciate it if you could say whether GCCACTGGAAACAGCAGC ((..(((....)))..)) has folding enthalpy at least equal to -20 kcal/mol.
1

I'd appreciate it if you could say whether GTTCACGAAAGTGACAAC ((((((....)))..))) has folding enthalpy at least equal to -20 kcal/mol.
1

I'd appreciate it if you could say whether GCGGACGAAAGTCGTCGC ((((((....)))..))) has folding enthalpy at least equal to -20 kcal/mol.
-1

I'd appreciate it if you could say whether GTGTGACGAAAGTCTCAC (((.(((....))).))) has folding enthalpy at least equal to -20 kcal/mol.
-1

I'd appreciate it if you could say whether GGAGTCGGAAACGGTTCC (((..((....))..))) has folding enthalpy at least equal to -20 kcal/mol.
-1

I'd appreciate it if you could say whether GCTTTCGAAAGAATGAGC ((((((....)))..))) has folding enthalpy at least equal to -20 kcal/mol.
1

I'd appreciate it if you could say whether GGATTCGAAAGAAGCTCC ((((((....)))..))) has folding enthalpy at least equal to -20 kcal/mol.
1

I'd appreciate it if you could say whether GATGCACGAAAGTGGATC (((.(((....))).))) has folding enthalpy at least equal to -20 kcal/mol.
-1

I'd appreciate it if you could say whether GCCCACCGAAAGGTTGGC (((.(((....))).))) has folding enthalpy at least equal to -20 kcal/mol.
-1

====

Measured Tm accompanies every entry in the list below.
Experiment: melting temperature; fluorescence melt of hairpins on a sequencing array, two-state fit, raised by 9.35 °C to match UV melts
Details: sodium 0.088 M
Reply numerically in °C, unit not repeated.

Residue string	Units of measure	Tm
CGGGCGGAAACGCAGCCG ((((((....)))..)))	°C	50.2

# sequence GGCCAAGGAAACTCGGCC ((((.((....)).)))) ; its Tm = 50.7

# sequence CGTCGCGGAAACGCTACG (((.(((....))).))) ; its Tm = 49.3

====

Assay: folding enthalpy; higher = less favourable; fluorescence melt of hairpins on a sequencing array, two-state fit
Conditions: sodium 0.088 M
Experimental endpoint: folding enthalpy (kcal/mol)
Reply numerically in kcal/mol, unit not repeated.

Look over these answered cases.
Residue string	Units of measure	Meas value
GATTTAGAAATAAATC ((((((....))))))	kcal/mol	-18.8
GTGTAGGGAAACCTACAC (((((((....)))))))	kcal/mol	-41.1
GCGAACGGAAACATCCGC (((.(.(....).).)))	kcal/mol	-7.45
GTAGCCGAAAGGCGGTAC ((((((....)))..)))	kcal/mol	-9.4

# sequence GAATCCGAAAGGAGCTTC ((((((....)))..))) ; its folding enthalpy = -23.6

# sequence GGGCAGGGAAACCTGCTC (.(((((....))))).) ; its folding enthalpy = -20

# sequence GCTTTTGGAAACGAAAGC (((((.(....).))))) ; its folding enthalpy = -39

# sequence GAAGAGCGAAAGCTGTTC (((.(((....))).))) ; its folding enthalpy = -24.9

# sequence GATCGCTTGGGCGATC ((((((....)))))) ; its folding enthalpy = -27.7

====

Measured Tm accompanies every entry in the list below.
Test: melting temperature; fluorescence melt of hairpins on a sequencing array, two-state fit, raised by 9.35 °C to match UV melts
Settings: sodium 0.088 M
Reply numerically in °C, unit not repeated.

Look over these answered cases.
Residue string	Tm (°C)
GTCCAACGAAAGTTTGAC (((.(((....))).)))	42
GGAGCCGAAAGGCATCC ((((((....))).)))	53.8
GATCGTGGAAACGTGATC ((((..(....)..))))	37.3
CGAACACGGAAACGTTCG (((..(((....))))))	42.7
GCGTAGGGAAACCTACAC (.(((((....))))).)	40.8

// next item, Tm requested
# sequence GTGACCCGAAAGGGACAC (((.(((....))).))) ; its Tm = 61.8

====

Assay: melting temperature; fluorescence melt of hairpins on a sequencing array, two-state fit, raised by 9.35 °C to match UV melts
Conditions: sodium 0.088 M
Tag: true if measured Tm is not below 60 °C, false if it is.

Some entries whose results are on file:
Residue string	Class
GATCCATAAATGGATC ((((((....))))))	false
GATCCAACCTGGATC ((((((...))))))	false

I'd appreciate it if you could say whether GTGGACGGAAACGCCCAC ((((.((....)).)))) has Tm at least equal to 60 °C.
false

I'd appreciate it if you could say whether GGGTCGCGAAAGCGCCC (((.(((....)))))) has Tm at least equal to 60 °C.
true

I'd appreciate it if you could say whether GATCATGGCAATGATC ((((((....)))))) has Tm at least equal to 60 °C.
false

====

Assay: melting temperature; fluorescence melt of hairpins on a sequencing array, two-state fit, raised by 9.35 °C to match UV melts
Settings: sodium 0.088 M
Rule: measured Tm below 50 °C gets 1.0; anything equal to or greater than 50 °C gets 0.0.

Some entries whose results are on file:
Residue string	Class
GGATTCGGAAACGGATCC ((((.((....)).))))	0.0
AGTTCGAAAGAACT (((((....)))))	0.0
GATCACGGAAACATGATC (((((.(....).)))))	1.0

Consider the sequence GTAATACGAAAGTAGTAC (((.(((....))).))) . Is its Tm strictly less than 50 °C?
1.0

Consider the sequence GCTGATACGAAAGTAAGC (((..(((....)))))) . Is its Tm strictly less than 50 °C?
1.0

Consider the sequence GCAATTCGAAAGAAGTGC (((.(((....))).))) . Is its Tm strictly less than 50 °C?
0.0

Consider the sequence GGCATTGGAAACAACGCC (((.(((....))).))) . Is its Tm strictly less than 50 °C?
1.0

Consider the sequence GCGTAATCACGC ((((....)))) . Is its Tm strictly less than 50 °C?
0.0

Consider the sequence GCGTACTCGAAAGAGCGC (((..(((....)))))) . Is its Tm strictly less than 50 °C?
1.0

Consider the sequence GCCCGGCCGAAAGGCGGC (((..(((....)))))) . Is its Tm strictly less than 50 °C?
0.0

====

Assay: melting temperature; fluorescence melt of hairpins on a sequencing array, two-state fit, raised by 9.35 °C to match UV melts
Conditions: sodium 0.088 M
Rule: measured Tm below 60 °C gets met; anything equal to or greater than 60 °C gets not met.

Residue string	Class
GATCGCTGAGGCGATC ((((((....))))))	not met
GCTCTTGGAAACGAGAGC (((((.(....).)))))	met
GCCTTAGGAAACTAAGAC (.(((((....))))).)	met
GCGAAGCGAAAGCTTAGC ((.((((....)))).))	met

Consider the sequence GGGCGCGAAAGCGGGCCC ((((((....)))..))) . Is its Tm strictly less than 60 °C?
not met

====

Measured folding enthalpy accompanies every entry in the list below.
Assay: folding enthalpy; higher = less favourable; fluorescence melt of hairpins on a sequencing array, two-state fit
Conditions: sodium 0.088 M
Reply numerically in kcal/mol, unit not repeated.

Residue string	folding enthalpy, kcal/mol
GTGGGGGGAAACCTCCGC (.((.((....)).)).)	-25.4
GATCTGGTGCCAGATC ((((((....))))))	-46.6
GCTTATCCGAAAGGAAGC (((..(((....))))))	-15.5
GAACTCGGAAACAAGTTC (((((.(....).)))))	-22.7
GGCACCGAAAGGTAGGCC ((((((....)))..)))	-29.7

// next item, folding enthalpy requested
# sequence GGATATGCGAAAGCATCC (((..(((....)))))) ; its folding enthalpy = -12.2
